Test system: Caupolican (Caup) homeodomain DNA-binding domain
Sequence: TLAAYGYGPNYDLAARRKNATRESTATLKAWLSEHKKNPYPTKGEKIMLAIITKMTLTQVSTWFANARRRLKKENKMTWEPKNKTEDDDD
Assay: PBM E-score (8-mer, recovered from the published 9-mer minima) (E-score (dimensionless, -0.5 to 0.5)); Drosophila protein; higher = stronger relative binding preference, active = 0.31 or more
This excerpt belongs to a sample that is enriched for hits. The true hit rate is not given.
Respond using exactly one of the listed classes: Yes for active, No for inactive

The following sequences have reported results that may help.
1) CAACAATC
No
2) GCATGTCA
Yes
3) AAGGTGGA
No
4) AATTAACC
No

Enquiry: Status in this test for "AGCGAGCT" ?
Return: No

Enquiry: Which outcome did this test record for the sequence "CTTGTATC" ?
Return: Yes

Enquiry: For "AACTAACT" , what call appears in the results of this test?
Return: No

Enquiry: Look up the recorded call for "AATCGTGC" in this test.
Return: No

Enquiry: # outcome recorded in this test, key = "CTTGTAGC"
Return: No

Enquiry: What classification did "CCATGGCA" end up with in this test?
Return: No

Enquiry: For "AAGTAACA" , which call appears in the assay record?
Return: No

Enquiry: Hey, what did the test say about "CCATGTCA" ?
Return: Yes

Enquiry: Dear colleague, could you share the recorded outcome for "CTGTGTCA" when you have a moment?
Return: No

Enquiry: Hi team, can someone confirm the assay call for "AATCGTGT" ?
Return: Yes

Enquiry: Just curious, what result did "GGCGACAA" get here?
Return: No

Enquiry: Please share the test call associated with "GCGTGTCA" .
Return: No
